target: UniProt:P0DTD1; test: biochemical; type: biochemical; design: unit not given here; details: LOPAC1280 primary screen with protease, 5 µM compound, mean of two replicates
Test Readout: mean (LOPAC_screen_w_protease)

# mean (LOPAC_screen_w_protease) (compound: NC(=S)c1ccc[n+]([C@@H]2O[C@@H](COP(=O)([O-])OP(=O)(O)OC[C@H]3O[C@@H](n4cnc5c(N)ncnc54)C(OP(=O)([O-])O)[C@H]3O)C(O)C2O)c1.[Na+] (stereo partly shown) [Thio-NADP sodium] ) is 1.323

mean (LOPAC_screen_w_protease) for `Cc1nc2sccn2c(=O)c1CCN1CCC(=C(c2ccc(F)cc2)c2ccc(F)cc2)CC1` is 1.373

Lab note: CC1CNCCN1S(=O)(=O)c1cccc2cnccc12.Cl.Cl (stereo not shown) [H-7 dihydrochloride] gave mean (LOPAC_screen_w_protease) of 1.4971

In plain terms, COc1cccc(OC)c1OCCNCC1COc2ccccc2O1.Cl (stereo not shown) [WB-4101 hydrochloride] has a documented mean (LOPAC_screen_w_protease) of 1.343

---

target: SARS-CoV-2 3CLpro (Severe acute respiratory syndrome coronavirus 2, UniProt P0DTD1); assay: biochemical; type: biochemical; conditions: A) EC50 with Triton X-100
Test Readout: EC50 (µM)
Supply the numeric figure in µM, leaving out any unit text.

The compound Cc1c(OCC(F)(F)F)ccnc1C[S+]([O-])c1nc2ccccc2[nH]1 (centres unmarked) [Lansoprazole, reference compound] showed EC50 equal to 5.72

The compound identified as O=c1cc(O)cc(/C=C/c2ccc(O)c(O)c2)o1 [Hispidin, reference compound] registered its EC50 at 5

Briefly, EC50 measured for N[C@@H](CCC(=O)N[C@@H](CSN=O)C(=O)NCC(=O)O)C(=O)O [S-Nitrosoglutathione, reference compound] : 2.29

Reported EC50 for Oc1cc2c(cc1O)CN(C(=S)NCCc1ccc(Cl)cc1)CCC2 [Capsazepine, reference compound] was 0.944

---

molecular target: SARS-CoV-2 3CLpro (Severe acute respiratory syndrome coronavirus 2); test: biochemical; type: biochemical; settings: 4 h, sheet LOPAC_screen_w_protease; LOPAC1280 at 5 µM; replicate 2; read-out: Replicate_2
Structures can show the parent of a compound that is named as a salt.
What inhibition at 5 µM was measured for each of the following?
Use % as the unit, but write only the number.

Param item: Cc1oncc1C(=O)Nc1ccc(C(F)(F)F)cc1 [Leflunomide] ; param system: SARS-CoV-2 3CLpro (Severe acute respiratory syndrome coronavirus 2); output inhibition at 5 µM: 2.44

// inhibition at 5 µM (SARS-CoV-2 3CLpro (Severe acute respiratory syndrome coronavirus 2)) for CN(C)CCCO[C@@H]1[C@H]2OC(C)(C)O[C@H]2O[C@@H]1[C@H](O)CO [Amiprilose hydrochloride] = 0.526

Reading of inhibition at 5 µM for Cc1cn(C2CC(N=[N+]=[N-])C(CO)O2)c(=O)[nH]c1=O (stereo not shown) with SARS-CoV-2 3CLpro (Severe acute respiratory syndrome coronavirus 2): 0.327

The value of inhibition at 5 µM recorded for CC(C)(C)NCC(O)c1ccccc1Cl (stereo not shown) [Tulobuterol hydrochloride] when tested on SARS-CoV-2 3CLpro (Severe acute respiratory syndrome coronavirus 2) reads -0.673

Measured inhibition at 5 µM for this entry C[C@]12CCC(=O)C=C1CC[C@@H]1[C@@H]2CC[C@@]2(C)[C@H]1CC[C@]2(O)C(=O)CO [Cortexolone] on SARS-CoV-2 3CLpro (Severe acute respiratory syndrome coronavirus 2): -0.141

Readout inhibition at 5 µM for `CCOC(=O)C1=C[C@]2(CC)CCCN3CCc4c(n1c1ccccc41)[C@@H]32` , test system SARS-CoV-2 3CLpro (Severe acute respiratory syndrome coronavirus 2), was 1.28

Entry C[C@]12CCC(=O)C=C1CC[C@@H]1[C@@H]2[C@@H](O)C[C@@]2(C)[C@H]1CC[C@]2(O)C(=O)CO [Hydrocortisone] : inhibition at 5 µM on SARS-CoV-2 3CLpro (Severe acute respiratory syndrome coronavirus 2) = 0.0692

Kindly note: SARS-CoV-2 3CLpro (Severe acute respiratory syndrome coronavirus 2), NCCCCN=C(N)N [Agmatine sulfate] , inhibition at 5 µM value reported: 1.77

Observed inhibition at 5 µM, SARS-CoV-2 3CLpro (Severe acute respiratory syndrome coronavirus 2), CC(C(=O)O)c1ccc(CC2CCCC2=O)cc1 (stereo not shown) : 2.09

Reading of inhibition at 5 µM for CN(C)CCOC(=O)COc1ccc(Cl)cc1 [Centrophenoxine hydrochloride] with SARS-CoV-2 3CLpro (Severe acute respiratory syndrome coronavirus 2): 0.724

Fill in: SARS-CoV-2 3CLpro (Severe acute respiratory syndrome coronavirus 2) inhibition at 5 µM for COc1ccccc1OCC(O)CN1CCN(CC(=O)Nc2c(C)cccc2C)CC1 (stereo not shown) [Ranolazine dihydrochloride] = 0.768

Tested on SARS-CoV-2 3CLpro (Severe acute respiratory syndrome coronavirus 2): C=CCc1ccccc1OCC(O)CNC1(C)CCC(C(C)(C)NC(=O)CBr)CC1 (stereo not shown) . Observed inhibition at 5 µM: 2.58

SARS-CoV-2 3CLpro (Severe acute respiratory syndrome coronavirus 2) inhibition at 5 µM of CN(C)CCCC1(c2ccc(F)cc2)OCc2cc(C#N)ccc21 (stereo not shown) [Citalopram hydrobromide] is 0.536

Assay SARS-CoV-2 3CLpro (Severe acute respiratory syndrome coronavirus 2), sample CN(C)C/C=C(/c1ccc(Br)cc1)c1cccnc1 [Zimelidine dihydrochloride] , inhibition at 5 µM read: 0.928

Record `Cc1nc2n(c(=O)c1CCN1CCC(c3noc4cc(F)ccc34)CC1)CCCC2` / SARS-CoV-2 3CLpro (Severe acute respiratory syndrome coronavirus 2), inhibition at 5 µM recorded as 0.627

Recorded inhibition at 5 µM for `O=C1NC(=O)C(c2ccccc2)(c2ccccc2)N1` on SARS-CoV-2 3CLpro (Severe acute respiratory syndrome coronavirus 2) was 0.367

Measured inhibition at 5 µM for this entry CN(C)CC[C@@H](c1ccc(Br)cc1)c1ccccn1 [(+)-Brompheniramine maleate] on SARS-CoV-2 3CLpro (Severe acute respiratory syndrome coronavirus 2): 1.32

# CCN(c1nc(N)c(C(=O)NC(=N)N)nc1Cl)C(C)C [5-(N-Ethyl-N-isopropyl)amiloride] with SARS-CoV-2 3CLpro (Severe acute respiratory syndrome coronavirus 2): inhibition at 5 µM is 0.388

Per the reported SARS-CoV-2 3CLpro (Severe acute respiratory syndrome coronavirus 2) data, `COc1cc2ncnc(Nc3cccc(Cl)c3)c2cc1OC` has inhibition at 5 µM of 0.935

Param item: C#CCOC(=O)C1=CCCN(C)C1 [Arecaidine propargyl ester hydrobromide] ; param system: SARS-CoV-2 3CLpro (Severe acute respiratory syndrome coronavirus 2); output inhibition at 5 µM: 1.62

Value sought: inhibition at 5 µM, system SARS-CoV-2 3CLpro (Severe acute respiratory syndrome coronavirus 2), item Cc1cc(C(C)(C)C)cc(C)c1CC1=NCCN1 [Xylometazoline hydrochloride] . Result: 1.42

GET /values?item= CCN(CC)CCNC(=O)c1cc(S(C)(=O)=O)ccc1OC [Tiapride hydrochloride] &system= SARS-CoV-2 3CLpro (Severe acute respiratory syndrome coronavirus 2) returns inhibition at 5 µM: 0.964

Reported inhibition at 5 µM (SARS-CoV-2 3CLpro (Severe acute respiratory syndrome coronavirus 2)) for entry CN(C)CCOC(C)(c1ccccc1)c1ccccn1 (stereo not shown) [Doxylamine succinate] is 1.01

inhibition at 5 µM of CN(C)CC/C=C1/c2ccccc2Sc2ccc(Cl)cc21 [Chlorprothixene hydrochloride] , assay on SARS-CoV-2 3CLpro (Severe acute respiratory syndrome coronavirus 2), is 2.17

Test item Cc1ccc(C(=O)Nc2ccc(S(=O)(=O)O)c3cc(S(=O)(=O)O)cc(S(=O)(=O)O)c23)cc1NC(=O)c1cccc(NC(=O)Nc2cccc(C(=O)Nc3cc(C(=O)Nc4ccc(S(=O)(=O)O)c5cc(S(=O)(=O)O)cc(S(=O)(=O)O)c45)ccc3C)c2)c1 [Suramin hexasodium] ; SARS-CoV-2 3CLpro (Severe acute respiratory syndrome coronavirus 2); reported inhibition at 5 µM was -0.222

Tested system SARS-CoV-2 3CLpro (Severe acute respiratory syndrome coronavirus 2); inhibition at 5 µM recorded for `Cc1nccc2c1[nH]c1ccccc12` was -0.5

Case C[N+](C)(C)CC(=O)O [Betaine hydrochloride] , SARS-CoV-2 3CLpro (Severe acute respiratory syndrome coronavirus 2), inhibition at 5 µM recorded as 1.99

SARS-CoV-2 3CLpro (Severe acute respiratory syndrome coronavirus 2) assay, compound NC(=O)c1cccc(N)c1 [3-aminobenzamide] , recorded inhibition at 5 µM = 1.51

Lab entry: SARS-CoV-2 3CLpro (Severe acute respiratory syndrome coronavirus 2) assay, compound `Nc1ccn([C@H]2CC[C@@H](CO)O2)c(=O)n1` , inhibition at 5 µM = 0.388

Entry `OCCN1CCN(CCCN2c3ccccc3Sc3ccc(Cl)cc32)CC1` ; assay system SARS-CoV-2 3CLpro (Severe acute respiratory syndrome coronavirus 2); inhibition at 5 µM recorded at 1.91

So the reported inhibition at 5 µM for N=C(N)N/N=C/c1c(Cl)cccc1Cl [Guanabenz acetate] , on SARS-CoV-2 3CLpro (Severe acute respiratory syndrome coronavirus 2), turned out to be -0.398

`CCCn1cnc2c1c(=O)n(CCCCC(C)=O)c(=O)n2C` on SARS-CoV-2 3CLpro (Severe acute respiratory syndrome coronavirus 2) gives inhibition at 5 µM = 0.327

Fill in: SARS-CoV-2 3CLpro (Severe acute respiratory syndrome coronavirus 2) inhibition at 5 µM for CC(N/C(=N\C#N)Nc1ccncc1)C(C)(C)C (stereo not shown) = -0.383

C[N+](C)(C)CCOC(=O)CCC(=O)OCC[N+](C)(C)C [Succinylcholine chloride] tested on SARS-CoV-2 3CLpro (Severe acute respiratory syndrome coronavirus 2) gave inhibition at 5 µM: 1.11
